Measured IC50 values are reported for all entries that follow.
Tested on: SSG-resistant L. donovani Ld39 promastigotes
Test: microbe, parasite or virus in culture
Format: cell-based, Leishmania donovani
Conditions: Leishmania donovani, 72 h, read-out: IC50(μM) of synthetic flavonoid, Ld39
readout.label: IC50 (µM)

# compound, readout.label, numeric.result
data = [
    ("O=c1cc(-c2ccc(O)cc2)oc2cc(O)cc(O)c12 [Apigenin, reference compound]", "IC50", 43),
    ("O=c1cc(-c2ccc(OCCOCCOCCOCCOCCOCCOc3ccc(-c4cc(=O)c5c(O)cc(O)cc5o4)cc3)cc2)oc2cc(O)cc(O)c12 [Compound 9f]", "IC50", 13),
    ("O=c1cc(-c2ccc(OCCOCCOCCOCCOCCOc3ccc(-c4cc(=O)c5c(O)cc(O)cc5o4)cc3)cc2)oc2cc(O)cc(O)c12 [Compound 9e]", "IC50", 42),
]

----------
Measured log10 IC50 values are reported for all entries that follow.
Tested on: MDA435/LCC6 MDR cells
Test: cells
Settings: Homo sapiens, 96 h, read-out: IC50 (nM) of anticancer drug alone, LCC6 MDR; drug alone, no modulator
readout.label: log10 IC50 (log10 of the value in nM)

# compound, system.under.test, readout.label, numeric.result
data = [
    ("CC[C@]1(O)C[C@H]2CN(CCc3c([nH]c4ccccc34)[C@@](C(=O)OC)(c3cc4c(cc3OC)N(C=O)[C@H]3[C@@](O)(C(=O)OC)[C@H](OC(C)=O)[C@]5(CC)C=CCN6CC[C@]43[C@@H]65)C2)C1 [Vincristine]", "MDA435/LCC6 MDR cells", "log10 IC50", 1.41),
    ("O=C1c2c(O)ccc(O)c2C(=O)c2c(NCCNCCO)ccc(NCCNCCO)c21 [Mitoxantrone]", "MDA435/LCC6 MDR cells", "log10 IC50", 3.16),
    ("CC[C@]1(O)C[C@@H]2CN(CCc3c([nH]c4ccccc34)[C@@](C(=O)OC)(c3cc4c(cc3OC)N(C)[C@H]3[C@@](O)(C(=O)OC)[C@H](OC(C)=O)[C@]5(CC)C=CCN6CC[C@]43[C@@H]65)C2)C1 [Vinblastine]", "MDA435/LCC6 MDR cells", "log10 IC50", 0.68),
    ("COc1cccc2c1C(=O)c1c(O)c3c(c(O)c1C2=O)C[C@@](O)(C(=O)CO)C[C@@H]3O[C@H]1C[C@H](N)[C@H](O)[C@H](C)O1 [Doxorubicin]", "MDA435/LCC6 MDR cells", "log10 IC50", 3.67),
    ("CC(=O)O[C@H]1C(=O)[C@@]2(C)[C@H]([C@H](OC(=O)c3ccccc3)[C@]3(O)C[C@H](OC(=O)[C@H](O)[C@@H](NC(=O)c4ccccc4)c4ccccc4)C(C)=C1C3(C)C)[C@]1(OC(C)=O)CO[C@@H]1C[C@@H]2O [Taxol, paclitaxel]", "MDA435/LCC6 MDR cells", "log10 IC50", 2.06),
    ("COc1cccc2c1C(=O)c1c(O)c3c(c(O)c1C2=O)C[C@@](O)(C(C)=O)C[C@@H]3O[C@H]1C[C@H](N)[C@H](O)[C@H](C)O1 [Daunorubicin]", "MDA435/LCC6 MDR cells", "log10 IC50", 2.99),
]
